The reported numbers originate from paper PMC10529462.

// reported Kd per item
Molecular target: T1, Mint1^Y549A/F610A C-terminal construct, amino acids 453-839 (rat, UniProt O35430 453-839, Y549A | F610A)
T1 sequence (looked up): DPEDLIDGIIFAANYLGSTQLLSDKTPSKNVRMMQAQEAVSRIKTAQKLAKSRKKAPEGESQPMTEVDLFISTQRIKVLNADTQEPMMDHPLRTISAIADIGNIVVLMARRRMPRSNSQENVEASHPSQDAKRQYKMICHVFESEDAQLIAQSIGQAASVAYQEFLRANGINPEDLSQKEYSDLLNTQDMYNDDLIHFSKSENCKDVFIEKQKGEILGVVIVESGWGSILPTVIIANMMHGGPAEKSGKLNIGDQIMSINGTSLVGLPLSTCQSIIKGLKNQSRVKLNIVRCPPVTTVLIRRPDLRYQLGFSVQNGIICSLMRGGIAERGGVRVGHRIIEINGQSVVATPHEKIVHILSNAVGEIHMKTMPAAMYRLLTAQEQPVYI
Experiment: fluorescence polarisation
No end group written: not given here.
Write down the numeric answer in µM and omit the unit.

>>> result_value("{TAMRA}-NNGLSSGGRARHSYHHPDQDHWC [TAMRA-VGCC2.2-20mer]")
1460

Enquiry: Supply Kd value. Item: {TAMRA}-NNGQNGYENPTYKFFEQMQN [TAMRA-APP17-mer]
Return: 382
